molecular target: human orexin 1 receptor (Homo sapiens (Human), UniProt O43613); experiment: Human orexin 1 receptor radioligand binding (competitive, [3H]-SB674042, CHO cell preparations); details: human orexin 1 receptor, [3H]-SB674042 competition binding; read-out: hOX1 Ki (nm)
Sequence (O43613 whole entry): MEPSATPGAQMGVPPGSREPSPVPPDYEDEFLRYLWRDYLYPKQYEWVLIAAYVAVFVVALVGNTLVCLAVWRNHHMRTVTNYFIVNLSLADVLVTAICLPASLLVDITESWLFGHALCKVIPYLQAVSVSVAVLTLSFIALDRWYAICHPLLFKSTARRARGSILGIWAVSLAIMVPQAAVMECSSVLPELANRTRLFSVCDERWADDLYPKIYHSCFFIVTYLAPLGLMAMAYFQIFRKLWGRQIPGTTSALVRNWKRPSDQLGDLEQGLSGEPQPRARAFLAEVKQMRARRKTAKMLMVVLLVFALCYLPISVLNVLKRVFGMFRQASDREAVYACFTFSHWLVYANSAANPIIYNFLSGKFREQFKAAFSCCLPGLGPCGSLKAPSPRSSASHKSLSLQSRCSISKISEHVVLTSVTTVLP
Catalogue of molecules with associated Ki
Readout: Ki

Molecule: Cc1ccc(OCC2CC3CCC2N3C(=O)c2cccc(F)c2-n2nccn2)nc1 (racemic) [Example 138]
Readout: Ki
Measurement: 606 nM
//
Molecule: O=C(c1cccc2ccccc12)N1C2CCC1C(COc1ccc(F)cn1)C2 (racemic) [Example 24]
Readout: Ki
Measurement: 122 nM
//
Molecule: Cc1noc(-c2ccccc2C(=O)N2C3CCC2C(COc2ccccn2)C3)n1 (racemic) [Example 127]
Readout: Ki
Measurement: 190 nM
//
Molecule: Cc1cccc(OCC2CC3CCC2N3C(=O)c2cccc(F)c2-n2nccn2)n1 (racemic) [Example 142]
Readout: Ki
Measurement: 207 nM
//
Molecule: Cc1cnc(C(=O)N2C3CCC2C(Nc2cnc(C(F)(F)F)cn2)C3)c(-n2nccn2)c1 (racemic) [Example 184]
Readout: Ki
Measurement: 349 nM
//
Molecule: O=C(c1ccc(F)cc1-n1nccn1)N1C2CCC1C(COc1ccc(F)cn1)C2 (racemic) [Example 116]
Readout: Ki
Measurement: 250 nM
//
Molecule: Cc1ccc(-n2nccn2)c(C(=O)N2C3CCC2C(COc2cnc4ccccc4n2)C3)c1 (racemic) [Example 36]
Readout: Ki
Measurement: 70 nM
//
Molecule: Cc1cccc(OCC2CC3CCC2N3C(=O)c2ccc(C)nc2-n2ccnn2)n1 (racemic) [Example 140]
Readout: Ki
Measurement: 3100 nM
//
Molecule: Cc1ccc(-n2nccn2)c(C(=O)N2C3CCC2C(COc2nc(C)cnc2C)C3)c1 (racemic) [Example 20]
Readout: Ki
Measurement: 270 nM
//
Molecule: Cc1ccc(C(=O)N2C3CCC2C(COc2cnc4ccccc4n2)C3)c(-n2nccn2)n1 (racemic) [Example 168]
Readout: Ki
Measurement: 2300 nM

---

Catalogue of molecules with associated pKi
molecular target: rat orexin 1 receptor (Rattus norvegicus, UniProt P56718); experiment: Rat orexin 1 receptor radioligand binding (competitive, [3H]-SB674042, HEK293 cell preparations); details: rat orexin 1 receptor, [3H]-SB674042 competition binding; read-out: rOX1 Ki (nm)
pKi: −log10 of the molar value.

Molecule: Cc1ccc(-n2nccn2)c(C(=O)N2C3CCC2C(COc2cccnn2)C3)n1 (racemic)
System Tested: rat orexin 1 receptor (Rattus norvegicus, UniProt P56718)
Limit Operator: =
pKi: 5.66
--
Molecule: Cc1ccc(-c2nc(C)no2)c(C(=O)N2C3CCC2C(COc2ccc(F)cn2)C3)n1 (racemic)
System Tested: rat orexin 1 receptor (Rattus norvegicus, UniProt P56718)
Limit Operator: =
pKi: 6.71
--
Molecule: Cc1cc(C)nc(NC2CC3CCC2N3C(=O)c2nc(C)ccc2-n2nccn2)n1 (racemic)
System Tested: rat orexin 1 receptor (Rattus norvegicus, UniProt P56718)
Limit Operator: =
pKi: 5.43
--
Molecule: Cc1cnc(C(=O)N2C3CCC2C(Nc2cnc(C(F)(F)F)cn2)C3)c(-n2ccnn2)c1 (racemic)
System Tested: rat orexin 1 receptor (Rattus norvegicus, UniProt P56718)
Limit Operator: =
pKi: 5.82
--
Molecule: O=C(c1ccc(OC(F)F)cc1-n1nccn1)N1[C@@H]2CC[C@H]1[C@H](Nc1cnc(C(F)(F)F)cn1)C2
System Tested: rat orexin 1 receptor (Rattus norvegicus, UniProt P56718)
Limit Operator: =
pKi: 6.81
--
Molecule: Cc1ccc(-n2cccn2)c(C(=O)N2C3CCC2C(COc2ccc(F)cn2)C3)n1 (racemic)
System Tested: rat orexin 1 receptor (Rattus norvegicus, UniProt P56718)
Limit Operator: =
pKi: 7.06
--
Molecule: Cc1ccc(-n2nccn2)c(C(=O)N2C3CCC2C(COc2ncccn2)C3)n1 (racemic)
System Tested: rat orexin 1 receptor (Rattus norvegicus, UniProt P56718)
Limit Operator: =
pKi: 5.59
--
Molecule: Cc1ccc(-n2ccc(C)n2)c(C(=O)N2C3CCC2C(COc2ccc(F)cn2)C3)n1 (racemic)
System Tested: rat orexin 1 receptor (Rattus norvegicus, UniProt P56718)
Limit Operator: =
pKi: 7.32
--
Molecule: Cc1ccc(-c2ncco2)c(C(=O)N2C3CCC2C(COc2ccccn2)C3)n1 (racemic)
System Tested: rat orexin 1 receptor (Rattus norvegicus, UniProt P56718)
Limit Operator: =
pKi: 7.40
--
Molecule: Cc1nc2sccn2c1C(=O)N1C2CCC1C(COc1ccccn1)C2 (racemic)
System Tested: rat orexin 1 receptor (Rattus norvegicus, UniProt P56718)
Limit Operator: <
pKi: 5.00
--
Molecule: CCOc1ccnc(OCC)c1C(=O)N1C2CCC1C(COc1ccccn1)C2 (racemic)
System Tested: rat orexin 1 receptor (Rattus norvegicus, UniProt P56718)
Limit Operator: =
pKi: 6.82
--
Molecule: O=C(c1cccc(F)c1I)N1[C@@H]2CC[C@H]1[C@H](Nc1ncc(C(F)(F)F)cn1)C2
System Tested: rat orexin 1 receptor (Rattus norvegicus, UniProt P56718)
Limit Operator: =
pKi: 6.34
--
Molecule: COc1c(F)cccc1C(=O)N1C2CCC1C(COc1ccc(Br)cn1)C2 (racemic)
System Tested: rat orexin 1 receptor (Rattus norvegicus, UniProt P56718)
Limit Operator: =
pKi: 6.34
--
Molecule: CCOc1ccc(C)nc1C(=O)N1C2CCC1C(Nc1ncc(C(F)(F)F)cn1)C2 (single isomer, unassigned) [Example 227]
System Tested: rat orexin 1 receptor (Rattus norvegicus, UniProt P56718)
Limit Operator: <
pKi: 5.00
